- SUBJECT OF TEST: UniProtKB P00915
- Sequence (P00915 whole entry): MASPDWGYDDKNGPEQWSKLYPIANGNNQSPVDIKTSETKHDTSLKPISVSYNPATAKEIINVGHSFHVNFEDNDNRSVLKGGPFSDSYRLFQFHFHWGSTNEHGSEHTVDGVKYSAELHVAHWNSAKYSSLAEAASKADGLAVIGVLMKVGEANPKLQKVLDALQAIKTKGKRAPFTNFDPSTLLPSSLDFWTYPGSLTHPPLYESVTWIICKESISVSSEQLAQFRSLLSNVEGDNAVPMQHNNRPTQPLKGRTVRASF
- METHOD SUMMARY: Inhibition of human carbonic anhydrase 1 esterase activity by noncompetitive Lineweaver-Burke plot
RECORDED ENDPOINT: pKi
Expect pKi as a plain number equal to -log10 of the molar concentration.

(Q) Please state recorded pKi (tested on UniProtKB P00915) of Nc1ccc(C(=O)O)c(O)c1
(A) 3.62

(Q) # get_value(readout= pKi, system= UniProtKB P00915) for O=C(O)c1cc(/N=N/c2ccc(S(=O)(=O)Nc3ccccn3)cc2)ccc1O
(A) 5.16

(Q) Lookup: pKi / UniProtKB P00915 / Cc1cccc(C(=O)O)c1O [HYDROXYTOLUIC ACID]
(A) 1.94

(Q) Request body: readout pKi, system UniProtKB P00915, query O=C(O)c1cc(-c2ccc(F)cc2F)ccc1O . Return the value.
(A) 5.07

(Q) Could you share what pKi was measured for O=C(O)c1c(O)cc([N+](=O)[O-])cc1[N+](=O)[O-] , tested on UniProtKB P00915?
(A) 4.83

(Q) Hi! What's the reported pKi for CC(=O)Oc1ccccc1C(=O)O on UniProtKB P00915?
(A) 2.12
